# system.tested: human full-length autophosphorylated recombinant HPK1 (Homo sapiens (Human), UniProt Q92918)
# Sequence (Q92918 other isoform, or with tags, fused parts or gaps): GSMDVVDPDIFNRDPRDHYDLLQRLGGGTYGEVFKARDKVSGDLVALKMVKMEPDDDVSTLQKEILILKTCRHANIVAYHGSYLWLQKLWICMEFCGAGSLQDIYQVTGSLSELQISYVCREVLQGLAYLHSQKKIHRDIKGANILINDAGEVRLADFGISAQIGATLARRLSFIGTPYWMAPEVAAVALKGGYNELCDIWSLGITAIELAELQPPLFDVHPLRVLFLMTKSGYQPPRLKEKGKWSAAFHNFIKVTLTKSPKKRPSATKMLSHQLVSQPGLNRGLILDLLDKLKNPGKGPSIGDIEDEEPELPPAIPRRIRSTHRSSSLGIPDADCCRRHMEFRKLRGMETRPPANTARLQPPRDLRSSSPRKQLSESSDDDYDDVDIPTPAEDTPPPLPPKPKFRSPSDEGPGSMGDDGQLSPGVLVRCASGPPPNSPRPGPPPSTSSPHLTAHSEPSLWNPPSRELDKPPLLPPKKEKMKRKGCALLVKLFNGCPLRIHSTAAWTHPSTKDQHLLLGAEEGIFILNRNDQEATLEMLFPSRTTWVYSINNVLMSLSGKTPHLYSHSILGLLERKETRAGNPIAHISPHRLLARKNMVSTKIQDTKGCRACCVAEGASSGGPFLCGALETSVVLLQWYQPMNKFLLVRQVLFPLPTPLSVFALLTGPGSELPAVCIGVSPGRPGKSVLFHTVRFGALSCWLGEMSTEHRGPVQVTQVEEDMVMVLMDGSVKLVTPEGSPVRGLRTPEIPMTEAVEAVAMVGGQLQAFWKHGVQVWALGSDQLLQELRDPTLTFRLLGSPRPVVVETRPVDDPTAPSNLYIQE
# method: HPK1 biochemical enzyme assay (chelation-enhanced fluorescence, CHEF)
# measurement.parameters: 0.5 nM HPK1, 45 μM ATP, Morrison fit
# Description: HPK1 Biochemical Enzyme Assay HPK1 enzyme inhibition was measured by using the fluorescence-based chelation-enhanced fluorescence (CHEF) method (1), and by using a proprietary fluorescent peptide substrate, in which a cysteine residue is alkylated with a sulfonamido-oxine-based derivative to afford an amino acid termed C-Sox (CSx). […]
Listed molecules paired with reported Ki

molecule: CCn1cnnc1-c1cccc(N2Cc3c(cc(N(C)C)nc3[C@@H](C)N)C2=O)n1 (stereo in doubt) [Example 153]
qualifier.sign: =
Ki (nM): 1.25
--
molecule: CCn1cnnc1-c1cccc(N2Cc3c(cc(N4CCC[C@H]4C)nc3[C@@H](C)N)C2=O)n1 (single isomer, unassigned) [Example 151]
qualifier.sign: =
Ki (nM): 0.12
--
molecule: CC[C@H]1CCc2nnc(-c3cccc(N4Cc5c(cc(N(C)C)nc5CNC)C4=O)n3)n21 [Example 206]
qualifier.sign: =
Ki (nM): 0.12
--
molecule: CCCn1c(C)nnc1-c1cccc(N2Cc3c(cc(N(C)C(C)C)nc3[C@@H](C)N)C2=O)n1 (single isomer, unassigned) [Example 148]
qualifier.sign: =
Ki (nM): 0.4
--
molecule: CCn1c(C)nnc1-c1cccc(N2Cc3c(cc(N4CCC[C@H]4C)nc3[C@H](C)NC)C2=O)n1 (single isomer, unassigned) [Example 108]
qualifier.sign: =
Ki (nM): 0.61
--
molecule: CC[C@H]1CCc2nnc(-c3cccc(N4Cc5c(cc(N6CCC[C@H]6C)nc5[C@@H](C)N)C4=O)n3)n21 [Example 2]
qualifier.sign: <
Ki (nM): 0.05

###

# system.tested: human full-length autophosphorylated recombinant HPK1 (Homo sapiens (Human), UniProt Q92918)
# method: HPK1 biochemical enzyme assay (chelation-enhanced fluorescence, CHEF)
# measurement.parameters: 0.5 nM HPK1, 45 μM ATP, Morrison fit
pKi: −log10 of the molar value.
parameter: pKi

compound: CCCn1cnnc1-c1cccc(N2Cc3c(cc(N(C)C)nc3[C@@H](N)CC)C2=O)n1
qualifier.sign: =
endpoint.result: 8.43
--
compound: CC[C@@H](N)c1nc(N(C)C)cc2c1CN(c1cccc(-c3nnc4n3[C@@H](C)CC4)n1)C2=O
qualifier.sign: >
endpoint.result: 10.35
--
compound: CNCc1nc(N(C)C(C)C)cc2c1CN(c1cccc(-c3nnc4n3[C@@H](C)C[C@H]4C)n1)C2=O
qualifier.sign: =
endpoint.result: 9.49
--
compound: CCN(C)c1cc2c(c([C@@H](C)N)n1)CN(c1cccc(-c3nncn3CC)n1)C2=O (single isomer, unassigned)
qualifier.sign: =
endpoint.result: 9.55
--
compound: CCCn1cnnc1-c1cccc(N2Cc3c(cc(N4CCC[C@H]4C)nc3[C@@H](C)N)C2=O)n1 (single isomer, unassigned)
qualifier.sign: =
endpoint.result: 9.77
--
compound: CCN(C)c1cc2c(c([C@H](C)N)n1)CN(c1cccc(-c3nnc(C)n3CC)n1)C2=O (single isomer, unassigned)
qualifier.sign: =
endpoint.result: 8.99
--
compound: CC[C@@H](N)c1nc(C2(C)CC2)cc2c1CN(c1cccc(-c3nncn3C3CCC3)n1)C2=O (stereo in doubt)
qualifier.sign: =
endpoint.result: 8.70
--
compound: CCCn1cnnc1-c1cccc(N2Cc3c(cc(C4(C)CC4)nc3[C@H](C)NC)C2=O)n1
qualifier.sign: =
endpoint.result: 9.17
--
compound: CC[C@@H]1CCc2nnc(-c3cccc(N4Cc5c(cc(N(C)C(C)C)nc5CNC)C4=O)n3)n21
qualifier.sign: =
endpoint.result: 8.89
--
compound: CCn1c(C)nnc1-c1cccc(N2Cc3c(cc(N4CCC[C@H]4C)nc3[C@@H](C)N)C2=O)n1 (single isomer, unassigned)
qualifier.sign: =
endpoint.result: 9.60
--
compound: CC[C@H]1CCc2nnc(-c3cccc(N4Cc5c(cc(N(C)C(C)C)nc5[C@@H](C)N)C4=O)n3)n21
qualifier.sign: >
endpoint.result: 10.30
--
compound: COC[C@@H](N)c1nc(C2(C)CC2)cc2c1CN(c1cccc(-c3nnc4n3[C@@H](CF)CC4)n1)C2=O (single isomer, unassigned)
qualifier.sign: =
endpoint.result: 9.52

###

# system.tested: human full-length autophosphorylated recombinant HPK1 (Homo sapiens (Human))
# method: HPK1 biochemical enzyme assay (chelation-enhanced fluorescence, CHEF)
# measurement.parameters: 0.5 nM HPK1, 45 μM ATP, Morrison fit
# Method: HPK1 Biochemical Enzyme Assay HPK1 enzyme inhibition was measured by using the fluorescence-based chelation-enhanced fluorescence (CHEF) method (1), and by using a proprietary fluorescent peptide substrate, in which a cysteine residue is alkylated with a sulfonamido-oxine-based derivative to afford an amino acid termed C-Sox (CSx). […]
Listed compounds paired with reported Ki

compound: CNCc1nc(N(C)C(C)C)cc2c1CN(c1cccc(-c3nnc4n3[C@@H](C)C[C@@H]4C)n1)C2=O
qualifier.sign: <
Ki / nM: 0.05

compound: CC[C@H]1CCc2nnc(-c3cccc(N4Cc5c(cc(N6CCC[C@H]6C)nc5[C@@H](N)CC)C4=O)n3)n21
qualifier.sign: =
Ki / nM: 8.47

compound: CCC(CC)n1cnnc1-c1cccc(N2Cc3c(cc(C4(C)CC4)nc3[C@H](C)N)C2=O)n1 (stereo in doubt)
qualifier.sign: =
Ki / nM: 1.42

compound: CCn1cnnc1-c1cccc(N2Cc3c(cc(N4CCC[C@H]4C)nc3[C@H](C)NC)C2=O)n1 (single isomer, unassigned)
qualifier.sign: =
Ki / nM: 0.31

###

# system.tested: human full-length autophosphorylated recombinant HPK1 (Homo sapiens (Human))
# method: HPK1 biochemical enzyme assay (chelation-enhanced fluorescence, CHEF)
# measurement.parameters: 0.5 nM HPK1, 45 μM ATP, Morrison fit
pKi: −log10 of the molar value.
parameter: pKi

compound: CC[C@@H]1CCc2nnc(-c3cccc(N4Cc5c(cc(N6CCC[C@H]6C)nc5[C@H](N)CC)C4=O)n3)n21 (single isomer, unassigned)
endpoint.result: > 10.15

compound: CC[C@H]1CCc2nnc(-c3cccc(N4Cc5c(cc(N(C)C(C)C)nc5CNC)C4=O)n3)n21
endpoint.result: > 10.30

compound: CC[C@H]1CCc2nnc(-c3cccc(N4Cc5c(cc(N6CCC[C@H]6C)nc5CNC)C4=O)n3)n21
endpoint.result: > 10.30

compound: C[C@@H]1CCCN1c1cc2c(c([C@@H](C)N)n1)CN(c1cccc(-c3nnc4n3[C@H](C)CC4)n1)C2=O (single isomer, unassigned)
endpoint.result: > 10.30

compound: CC[C@@H](N)c1nc(N(C)C(C)C)cc2c1CN(c1cccc(-c3nnc4n3[C@@H](CO)CC4)n1)C2=O
endpoint.result: > 10.30

###

# system.tested: human full-length autophosphorylated recombinant HPK1 (Homo sapiens (Human), UniProt Q92918)
# method: HPK1 biochemical enzyme assay (chelation-enhanced fluorescence, CHEF)
# measurement.parameters: 0.5 nM HPK1, 45 μM ATP, Morrison fit
pKi: −log10 of the molar value.

compound: CNCc1nc(N(C)C(C)C)cc2c1CN(c1cccc(-c3nnc4n3[C@@H](C)CC4)n1)C2=O
qualifier.sign: >
pKi: 10.30
//
compound: C[C@@H]1CCCN1c1cc2c(c(C(C)(C)N)n1)CN(c1cccc(-c3nnc4n3[C@@H](C)CC4)n1)C2=O
qualifier.sign: >
pKi: 10.30
//
compound: CCn1c(C)nnc1-c1cccc(N2Cc3c(cc(N4CCC[C@H]4C)nc3[C@@H](C)NC)C2=O)n1 (single isomer, unassigned)
qualifier.sign: =
pKi: 8.99
//
compound: CC[C@H](N)c1nc(N(C)C)cc2c1CN(c1cccc(-c3nncn3CC)n1)C2=O (stereo in doubt)
qualifier.sign: =
pKi: 9.00
//
compound: C[C@@H]1CCc2nnc(-c3cccc(N4Cc5c(cc(N(C)C)nc5C(C)(C)N)C4=O)n3)n21 (single isomer, unassigned)
qualifier.sign: =
pKi: 8.30
//
compound: CCn1c(C)nnc1-c1cccc(N2Cc3c(cc(N4CCC[C@H]4C)nc3C(C)(C)N)C2=O)n1
qualifier.sign: =
pKi: 9.66
//
compound: CCCn1c(C)nnc1-c1cccc(N2Cc3c(cc(N4CCC[C@H]4C)nc3[C@H](C)N)C2=O)n1 (single isomer, unassigned)
qualifier.sign: =
pKi: 9.66
//
compound: CC[C@@H](N)c1nc(N2CCC[C@H]2C)cc2c1CN(c1cccc(-c3nncn3CC)n1)C2=O
qualifier.sign: >
pKi: 10.15
//
compound: CCCn1cnnc1-c1cccc(N2Cc3c(cc(C4(C)CC4)nc3[C@H](N)CC)C2=O)n1 (single isomer, unassigned)
qualifier.sign: =
pKi: 8.39
//
compound: CC[C@@H](N)c1nc(C2(C)CC2)cc2c1CN(c1cccc(-c3nnc4n3[C@@H](CO)CC4)n1)C2=O (single isomer, unassigned)
qualifier.sign: =
pKi: 10.13
//
compound: CCn1cnnc1-c1cccc(N2Cc3c(cc(C4(C)CC4)nc3C(C)(C)N)C2=O)n1
qualifier.sign: =
pKi: 9.39
//
compound: CC[C@@H]1CCc2nnc(-c3cccc(N4Cc5c(cc(N6CCC[C@H]6C)nc5[C@@H](C)N)C4=O)n3)n21
qualifier.sign: =
pKi: 8.55
